experiment: qHTS Primary assay for Inhibitors of Plasmodium falciparum Dd2 growth in vitro; further: nearly all actives have a fitted effect of over 65% in size; conditions: P. falciparum Dd2 growth, SYBR Green, 72 h; series mostly up to 28.9 µM
Among all 120,000 compounds or so, about 5,300 (4.4%) were called active. Roughly 22% stayed inconclusive and do not appear here. The call rests on the fitted dose curve; in most records, active means well fitted inhibition curve with a large enough effect; inconclusive means small, poorly fitted or top-dose-only effect; inactive means no such curve, though single readings can be large or run the other way. The sample holds actives, similar compounds and a random draw of the others, so the mix is not that of the screen.
Return exactly one item of 1.0 = active, 0.0 = inactive

| COMPOUND | CLASS_LABEL |
| --- | --- |
| CC1=Nc2cc(C(=O)NCc3ccc(C)cc3)ccc2Sc2ccc(Cl)cc21 | 0.0 |

Please look at the following compound next.
Q: Which outcome did this test record for the compound `CCOc1ccc(C(=O)N2CCN(c3cc(-c4cccs4)[nH]n3)CC2)cc1` ?
Result: 0.0

###

assay: qHTS Primary assay for Inhibitors of Plasmodium falciparum Dd2 growth in vitro; further: nearly all actives have a fitted effect of over 65% in size; conditions: P. falciparum Dd2 growth, SYBR Green, 72 h; series mostly up to 28.9 µM
Hit rate of the full screen: of about 120,000 compounds, about 5,300 (4.4%) were called active. About 22% were inconclusive and are not listed. Calls come from the whole dose curve; as a rule, active = well fitted inhibition curve with a large enough effect; inconclusive = small, poorly fitted or top-dose-only effect; inactive = no such curve, though single readings can be large or run the other way. Only a selection was taken, and actives are over-represented in it overall.
Return exactly one item of active, inactive

Q: Which outcome did this test record for the compound `CC(=O)c1ccc(NC(=O)C2CCN(S(=O)(=O)c3c(C)noc3/C=C/c3ccc(C)cc3)CC2)cc1` ?
Result: inactive

Q: Which outcome did this test record for the compound CN1CC2(CCN(C(=O)c3n[nH]c(=O)c4ccccc34)CC2)CC1C(=O)N1CCOCC1 (stereo not given) ?
Result: inactive

Q: Which outcome did this test record for the compound `CN1CC(=O)N(c2ccccc2F)Cc2c(NCCc3ccc(F)cc3)ncnc21` ?
Result: inactive

Q: Which outcome did this test record for the compound `Cc1cccc(-c2cccc(CN)c2)c1` ?
Result: active

Q: Which outcome did this test record for the compound `O=c1n(-c2ccncc2)nc2n1CCN([S+](=O)([O-])c1cccc(C(F)(F)F)c1)C2` ?
Result: inactive

###

assay: qHTS Primary assay for Inhibitors of Plasmodium falciparum Dd2 growth in vitro; further: nearly all actives have a fitted effect of over 65% in size; conditions: P. falciparum Dd2 growth, SYBR Green, 72 h; series mostly up to 28.9 µM
Screen size: about 120,000 compounds; about 5,300 (4.4%) were called active. Not shown: some 22% with an inconclusive outcome. Calls follow the shape of the dose curve; as a rule, active = well fitted inhibition curve with a large enough effect; inconclusive = small, poorly fitted or top-dose-only effect; inactive = no such curve, though single readings can be large or run the other way. Shown is part of a subset that was picked to be rich in actives.
Return exactly one item of active, inactive

| COMPOUND | CLASS_LABEL |
| --- | --- |
| CC1CCC(NC(=O)CN2C(=O)NC3(CCS(=O)(=O)CC3)C2=O)CC1 (configuration not stated) | inactive |

Q: Which outcome did this test record for the compound `CCCn1c2ccccc2c2cnn(CC(=O)N(CC)c3cc(C)ccc3C)c(=O)c21` ?
Result: inactive

Q: Which outcome did this test record for the compound `O=C(Nc1ccc(Cl)cc1)c1nc2c(o1)CCN(Cc1ccsc1)CC2` ?
Result: inactive

###

test: qHTS Primary assay for Inhibitors of Plasmodium falciparum Dd2 growth in vitro; further: nearly all actives have a fitted effect of over 65% in size; conditions: P. falciparum Dd2 growth, SYBR Green, 72 h; series mostly up to 28.9 µM
Screen size: about 120,000 compounds; about 5,300 (4.4%) were called active. Inconclusive results (about 22%) are left out. Calls follow the shape of the dose curve; as a rule, active = well fitted inhibition curve with a large enough effect; inconclusive = small, poorly fitted or top-dose-only effect; inactive = no such curve, though single readings can be large or run the other way. The sample as a whole holds a higher share of actives than the screen did.
Return exactly one item of 1 = active, 0 = inactive

| COMPOUND | CLASS_LABEL |
| --- | --- |
| CN[C@@H](CC(C)C)C(=O)N[C@@H]1C=C(C(=O)N[C@@H](Cc2ccc(O)cc2)C(N)=O)C[C@@H](O)[C@@H]1O | 0 |
| COC1CCN(C(=O)c2c(-c3cnn(C)c3NCc3cccnc3)noc2C)CC1 | 0 |
| COc1ccc(CCNC(=O)c2nn(C)c3c2CSc2ccccc2-3)cc1OC | 0 |
| COc1ccc(NC(=O)C2CN(S(=O)(=O)c3cccnc3)CC23CCCCC3)cc1F (stereo unspecified) | 0 |
| c1cncc(-c2cnc([C@@H]3COCCN3Cc3cnc4ccccc4c3)[nH]2)c1 | 0 |

Q: Which outcome did this test record for the compound `COc1ccccc1N1CCN(C(=O)c2ccccc2-c2ncc[nH]2)CC1=O` ?
Result: 0

Q: Which outcome did this test record for the compound COc1cccc([S+](=O)([O-])N2CCC3(C2)C(=NC2CCCCC2)NC(=O)N3c2cccnc2)c1 (stereo unspecified) ?
Result: 0

Q: Which outcome did this test record for the compound `COCCN1C(=O)CC[C@]2(C(=O)NCc3cccs3)CCCC[C@@H]12` ?
Result: 0

Q: Which outcome did this test record for the compound `CCOC(=O)c1c(NC(=O)c2ccc(S(=O)(=O)N(CC)CC)cc2)sc2c1CCCCC2` ?
Result: 0

Q: Which outcome did this test record for the compound CCOC(=O)c1c(NC(=O)/C=C/c2ccc(OC)cc2)sc2c1CCC(C)C2 (stereo unspecified) ?
Result: 0

###

test: qHTS Primary assay for Inhibitors of Plasmodium falciparum Dd2 growth in vitro; further: nearly all actives have a fitted effect of over 65% in size; further: potency means the concentration at half of the fitted maximal effect; conditions: P. falciparum Dd2 growth, SYBR Green, 72 h; series mostly up to 28.9 µM
The campaign covered roughly 120,000 compounds. About 5,300 (4.4%) were called active. Roughly 22% stayed inconclusive and do not appear here. What follows is part of a selection rich in actives, with near analogues and random picks from the rest.
REPORTED_PROPERTY: Potency

Illustrative cases are given below, each with its answer.
| COMPOUND | REPORTED_PROPERTY | RESULT |
| --- | --- | --- |
| Cc1ccc2oc3c(c(=O)c2c1)C(c1ccc([N+](=O)[O-])cc1)N(CCCN1CCOCC1)C3=O (configuration not stated) | Potency | 10 µM (active) |
| O=C(c1ccc(Cl)cc1)N1CCn2c(nn(-c3ccncc3)c2=O)C1 | Potency | inactive |
| C=CCN(C)C[C@H]1CN2CC[C@H]1C[C@@H]2CNC(=O)Nc1cccc(SC)c1 | Potency | inactive |
| CCc1noc(C)c1C(=O)N1CC[C@@H](NC(=O)c2ccccn2)[C@H](O)C1 | Potency | inactive |

Q: Output measured Potency for this item: CCc1noc(-c2nnn3c2COC(c2ccc(OC)cc2)C3)n1 (configuration not stated)
Result: inactive

Q: Output measured Potency for this item: COc1ccc(Cl)cc1S(=O)(=O)N1CCCC(CNC(=O)c2ccco2)C1 (configuration not stated)
Result: inactive

Q: Output measured Potency for this item: CCOc1ccccc1CNC(=O)c1ccc2c(c1)nc1n2CCC(C)C1 (configuration not stated)
Result: inactive

Q: Output measured Potency for this item: `CN(C)C[C@@H]1CN(C(=O)c2ccc3c(c2)OCC(=O)N3)C[C@@H]1CO`
Result: inactive

Q: Output measured Potency for this item: C#CCOc1ccc(C2CC(=O)Nc3c2c(C)nn3-c2nc(C)cc(C)n2)cc1 (configuration not stated)
Result: inactive

Q: Output measured Potency for this item: CCOc1ccccc1CNC(=O)C1CCCN(S(=O)(=O)c2ccc3c(ccn3C)c2)C1 (configuration not stated)
Result: inactive

Q: Output measured Potency for this item: `COc1ccccc1CNC(=O)c1ccc(-n2c(C)cc3c2CCCC3)cc1`
Result: 11.2 µM (active)

###

assay: qHTS Primary assay for Inhibitors of Plasmodium falciparum Dd2 growth in vitro; further: nearly all actives have a fitted effect of over 65% in size; settings: P. falciparum Dd2 growth, SYBR Green, 72 h; series mostly up to 28.9 µM
The whole screen tested about 120,000 compounds, of which about 5,300 (4.4%) were called active. Inconclusive results (about 22%) are left out. Calls follow the shape of the dose curve; as a rule, active = well fitted inhibition curve with a large enough effect; inconclusive = small, poorly fitted or top-dose-only effect; inactive = no such curve, though single readings can be large or run the other way. The sample holds actives, similar compounds and a random draw of the others, so the mix is not that of the screen.
Return exactly one item of true for active, false for inactive

Take a look at these entries with their results.
| COMPOUND | CLASS_LABEL |
| --- | --- |
| COc1ccccc1N1CCN(CCCNC(=O)c2cnn(-c3ccccc3Cl)c2C2CCN(C(=O)OC(C)(C)C)CC2)CC1 | true |
| CC(C)C[C@@H]1N[C@H](C(=O)NCc2ccc(F)cc2)Cc2cn(C)c3cccc1c23 | true |
| Cc1noc([C@@H]2CN(Cc3ccc(C)o3)C[C@H]2CO)n1 | false |
| COc1ccccc1C(=O)N1CCC(c2n[nH]c(=O)n2-c2ccc(C)cc2)CC1 | false |
| COc1ccc(C(=O)Nc2cccc(-c3nnc4n3CCCC4)c2)cc1 | true |
| O=C(NCC1CC1)c1nc2c(o1)CCN(Cc1cccc(F)c1F)CC2 | false |
| CC#CCn1cc2c3c(cccc31)[C@H](CC(C)C)N[C@H](C(=O)NCc1ccccc1OC)C2 | false |
| COc1cccc(NC(=O)c2c(OC)cc(=O)n3c2CCCC3)c1 | false |

Q: Which outcome did this test record for the compound CCOC(=O)C1(Cc2ccc(F)cc2F)CCCN(Cc2cccc(OC)c2O)C1 (stereo not given) ?
Result: true

Q: Which outcome did this test record for the compound `Cc1ccc(NC(=O)Cn2c(-c3ccc(Cl)cc3)nc(C)c(CCO)c2=O)cc1C` ?
Result: false

Q: Which outcome did this test record for the compound `COc1ccc(CNC(=O)[C@@H]2Cc3cn(Cc4ccncc4)c4cccc(c34)[C@H](CC(C)C)N2)cc1` ?
Result: false

Q: Which outcome did this test record for the compound Cc1c(Cl)cccc1NC(=O)C1CCCN(C(=O)c2cnn(-c3ccccc3)c2-n2cccc2)C1 (stereo not given) ?
Result: false

Q: Which outcome did this test record for the compound Cc1ccc(C2CCN(C(=O)c3cnn(-c4ccccc4Cl)c3C3CCN(C(=O)OC(C)(C)C)CC3)C2)cc1 (stereo not given) ?
Result: true

Q: Which outcome did this test record for the compound Cc1nn(CC(=O)NCC2CCCO2)c(=O)c2nc(C(C)C)sc12 (stereo not given) ?
Result: false

Q: Which outcome did this test record for the compound `COc1cccc(CN2CCN(Cc3ncccc3C)CC2)c1O` ?
Result: false

These entries and their values trace back to PubChem BioAssay AID1347417.
